settings: in 2-butanone, 291.2 K
QUANTITY NAME: solubility (mole fraction)
Answers are plain numbers.

Give a short answer stating reported solubility (mole fraction) for CC[C@H](C)C(=O)O[C@H]1C[C@@H](C)C=C2C=C[C@H](C)[C@H](CC[C@@H]3C[C@@H](O)CC(=O)O3)[C@H]21 .
0.00918

###

conditions: in isobutyl acetate, 297.2 K
QUANTITY NAME: solubility (mole fraction)
Answers are plain numbers.

Give a short answer stating reported solubility (mole fraction) for CC[C@H](C)C(=O)O[C@H]1C[C@@H](C)C=C2C=C[C@H](C)[C@H](CC[C@@H]3C[C@@H](O)CC(=O)O3)[C@H]21 .
0.00504

Reference source: BigSolDB 2.1
